# Tgt: Human Factor D (Homo sapiens (Human))
# Sequence (P00746 26-253): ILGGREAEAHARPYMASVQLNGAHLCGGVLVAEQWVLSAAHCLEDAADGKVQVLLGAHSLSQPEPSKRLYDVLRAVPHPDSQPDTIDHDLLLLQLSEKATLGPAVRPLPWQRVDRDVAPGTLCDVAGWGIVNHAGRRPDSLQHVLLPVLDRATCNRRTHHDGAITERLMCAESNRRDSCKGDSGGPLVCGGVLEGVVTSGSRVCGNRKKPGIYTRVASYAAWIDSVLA
# Experiment notes: Human Factor D Assay
# Format: biochemical
# Test settings: Table 3; Factor D purified from human serum, 80 nM, substrate Z-L-Lys-SBzl; read-out: IC50 (Stars)
Recorded endpoint: IC50

See these solved cases before continuing.
CC(=O)c1nn(CC(=O)N2[C@H](C(=O)Nc3nc(Br)ccc3C)C[C@@]3(C)C[C@@H]23)c2ccc(Nc3cncc(F)c3)cc12 [Compound 165]; < 1000 nM
CC(=O)c1cn(CC(=O)N2C[C@H](F)C[C@H]2C(=O)NCCCc2ccccc2)c2ccc(Nc3cccnc3)cc12 [Compound 150]; < 1000 nM
CC(=O)c1cn(CC(=O)N2CC[C@H]2C(=O)Nc2cccc(C)n2)c2ccc(Nc3cccnc3)cc12 [Compound 159]; > 10000 nM
CC(=O)c1cn(CC(=O)N2C[C@H](F)C[C@H]2C(=O)NCCCCc2ccccc2)c2ccc(Nc3cccnc3)cc12 [Compound 152]; < 1000 nM
CC(=O)c1nn(CC(=O)N2C[C@H](F)C[C@H]2C(=O)Nc2cccc(Br)n2)c2ccc(Nc3cnc(C)nc3)cc12 [Compound 163]; < 1000 nM

Short answer please: IC50, Human Factor D (Homo sapiens (Human)), entry Cc1cccc(NC(=O)[C@@H]2[C@@H]3CCC(C3)N2C(=O)Cn2cc(C(N)=O)c3cc(Nc4ccc(Cl)nn4)ccc32)n1 [Compound 162]
< 1000 nM

Short answer please: IC50, Human Factor D (Homo sapiens (Human)), entry CC(=O)c1cn(CC(=O)N2CC[C@H]2C(=O)Nc2cccc(C)n2)c2ccc(Nc3cncnc3)cc12 [Compound 160]
> 10000 nM

Where these numbers come from: patent US10660876B2
